Test system: OVCAR-3 ovarian
Experiment: NCI tumour cell line growth inhibition, 48 h
Where a SMILES comes first, the peptide text is derived from it. The star is where a group is joined. Boc = CC(C)(C)OC(=O)*; Bn = c1ccc(C*)cc1
endpoint-name: TGI

If you can, please state the reported TGI value of CC(C)(C)CN1[C@@H]2CCCC[C@H]2N(CC(C)(C)C)P1(=O)C(O)/C=C/c1ccccc1 (stereo partly drawn) . > 100 µM

Can you handle COC1C(O)CC(OC2CC(OC3CC(O[C@@H]4C(=O)c5c(cc6cc(OC7CC(OC8CC(O)C(O)C(C)O8)C(O)C(C)O7)c(C)c(O)c6c5O)C[C@H]4[C@H](OC)C(=O)[C@@H](O)[C@@H](C)O)OC(C)C3O)OC(C)C2O)OC1C (stereo partly drawn) next? 0.101 µM

Same question for O=C1/C(=C/c2ccc(OC(=O)c3ccc(Cl)cc3)cc2)CCC/C1=C\c1ccc(OC(=O)c2ccc(Cl)cc2)cc1 please. > 100 µM

Also CCOC(=O)Nc1ccc(C(=O)/C=C/c2ccccc2)cc1 , if possible. 75.3 µM

# repeat for C/C(CC(=O)Nc1ccccc1)=N\NC(N)=S > 100 µM

What do you get for Cn1nc(S(N)(=O)=O)s/c1=N/S(=O)(=O)c1ccc(N)cc1 ? > 100 µM

Moving on to COc1ccc(Nc2ncc(-c3ccccc3)o2)cc1OC > 25 µM

Same read-out for COc1ccc(C2N3CCCCC3[C@@H]3c4[nH]c5ccccc5c4CCN23)c(OC)c1 (stereo partly drawn) ? 85.3 µM

Would you kindly repeat that for C/C=C/C=C/CCCCCCCCCCCCC[C@]1(OC)C=CC(CC(=O)OC)OO1 (stereo partly drawn) ? 42.2 µM

Follow-up entry: NC1=NCC(c2ccccn2)C1c1ccc(F)cc1 (stereo not drawn) > 100 µM

Same read-out for COc1ccc2c(c1)C(=O)c1c-2n(CCCN=[N+]=[N-])c(=O)c2cc(N)ccc12 ? > 100 µM

Queued: CC(=O)[O][Hg][CH2]C1(C)COC(C)([CH2][Hg][O]C(C)=O)CO1 (stereo not drawn) 0.0232 µM

Let us now turn to COc1cc(OC)c2nc(C)c3c(c2c1)OCC3 > 100 µM

Another molecule: CC(=O)OCC1OC(n2c(=S)n(-c3ccccc3)c(=O)c3cc(Br)ccc32)C(OC(C)=O)C(OC(C)=O)C1OC(C)=O (stereo not drawn) > 100 µM

Same thing, different molecule: CC(=O)c1c(C)cc2cccc(OC3OC(CO)C(O)C(O)C3O)c2c1O (stereo not drawn) (tested in a mixture with another compound) > 100 µM

Similarly, COc1ccc(OC)c([N+](=O)[O-])c1-c1nc2sc(C)c(C)n2c1/C=N/N=C(N)N ? > 100 µM

Note, next up: O=C1OC(C2Cc3ccc4c(c3C2=O)CCCC4)c2ccccc21 (stereo not drawn) 88.2 µM

Also COC(=O)C(CC(C)C)NC(=O)CNC(=O)C(Cc1ccc(OCc2ccccc2)cc1)NC(=O)C(COCc1ccccc1)NC(=O)OC(C)(C)C (stereo not drawn) (Boc-S(Bn)Y(Bn)GL-OMe; configuration not given here) , if possible. > 100 µM

====

System: CAKI-1 renal
Test: NCI tumour cell line growth inhibition, 48 h
Where a SMILES comes first, the peptide text is derived from it. The star is where a group is joined. Boc = CC(C)(C)OC(=O)*; Bn = c1ccc(C*)cc1
endpoint-name: TGI

# input compound: Nc1cc(N)cc(Cc2ccccc2)c1 ; wanted: its TGI > 100 µM

Also need O=S1(=O)c2ccccc2-c2nccc3ccnc1c23 , thanks. 85.9 µM

Same lookup for NC1=NCC(c2ccccn2)C1c1ccc(F)cc1 (configuration not stated) , please. > 100 µM

How about this compound: O=c1cc(-c2ccc3ccccc3c2)[nH]c2ncccc12 > 100 µM

Consider next the compound O=C(c1ccc(Cl)c(Cl)c1)N(C(=O)N1CCN(c2ccccc2)CC1)S(=O)(=O)c1ccccc1 in the same way. > 100 µM

Repeat for the following compound: CN(C)c1cccc(/C=C(\C#N)c2ccccc2)c1 > 100 µM

Now try C/C=C/C=C/CCCCCCCCCCCCC[C@]1(OC)C=CC(CC(=O)OC)OO1 (some centres not stated) . 31.1 µM

Next up: COC(=O)C(CC(C)C)NC(=O)CNC(=O)C(Cc1ccc(OCc2ccccc2)cc1)NC(=O)C(COCc1ccccc1)NC(=O)OC(C)(C)C (configuration not stated) (Boc-S(Bn)Y(Bn)GL-OMe; configuration not given here) > 100 µM

Now try O=C(/C=C/c1ccccc1Br)c1ccccc1 . 8.37 µM

Record: CCP(C)(C)=O > 100 µM

How about this compound: CC(C)=CC[C@H]1C[C@@]2(CC=C(C)C)C(=O)/C(=C(/O)c3ccccc3)C(=O)[C@](CC=C(C)C)(C2=O)C1(C)C 28.9 µM

O=C(O)c1nnsc1-c1csnn1 ? > 100 µM

Proceed to CC(=O)Oc1ccccc1C(=O)NCCC[Se]C#N 3.94 µM

Please answer likewise for CC1=NN(C(=O)CC(=O)Nc2ccc(Cl)cc2)C(=O)C1N=Nc1ccc(S(=O)(=O)c2ccc(N=NC3C(=O)N(C(=O)CC(=O)Nc4ccc(Cl)cc4)N=C3C)cc2)cc1 (configuration not stated) > 100 µM

# iterate: Cc1ccc(C2=Nn3c(nc4sc5c(c4c3=O)CCCC5)SC2)cc1 > 100 µM

Also need O=C(/N=C1/OC(CN2CCOCC2)CN1C(=O)Nc1ccccc1)Nc1ccccc1 (configuration not stated) , thanks. > 100 µM

Same thing, different compound: COc1cc(/C=C2\NC(=S)C3Cc4c(OC)c(C)c(OC)c(OC)c4C2N3C)c(OC)c(C)c1OC (configuration not stated) > 100 µM

Try the compound CCCCCCCCc1ccc(CCC(N)(CO)CO)cc1 6.56 µM

Same thing, different compound: CNC(=O)/C(=C/c1ccc(OC)cc1)c1cc(OC)c(OC)c(OC)c1 > 100 µM

Next compound up: CCOC(=O)CON=c1c2ccccc2ccc2ccccc12 > 100 µM

Could you do the same for N#CCN1CCN(CC#N)CCN(CC#N)CCN(CC#N)CC1 , please? > 100 µM

// query: Oc1cc2c(cc1C(c1ccc3c(c1)OCO3)N1CCN(C(c3ccc4c(c3)OCO4)c3cc4c(cc3O)OCO4)CC1)OCO2 (configuration not stated) 47.9 µM
